system: human mononuclear leucocytes (MNL, white blood cells); assay: direct leucocyte toxicity, tryptan blue exclusion, 18 hours; type: cell-based
Measurement name: direct MNL toxicity (in words)

-- ask For the compound "CC(C)(C)c1ccc(C=O)cc1" , give its measured direct MNL toxicity (in words) value.
-- reply most toxic

-- ask For the compound "N/N=C(\N)c1ccccn1" , give its measured direct MNL toxicity (in words) value.
-- reply most toxic

----------
tested on: E. faecalis; assay: MIC, agar dilution, multipoint inoculator; type: cell-based; conditions: Enterococcus faecalis, 18 h, E. faecalis Isolate 4; upper value of MIC reading; read-out: MIC
Measurement name: MIC (µg/mL)
Number in µg/mL, nothing else.

Worked cases, answers included:
-- ask For the molecule "CCC(C)(C)c1ccc(/C=N/N=C(\N)c2cccnc2)cc1" , give its measured MIC value.
-- reply 128

-- ask For the molecule "CC(C)(C)c1cc(/C=N/N=C(\N)c2ccncc2)c(O)c(C(C)(C)C)c1" , give its measured MIC value.
-- reply 4

-- ask For the molecule "N/C(=N\N=C\c1c2ccccc2cc2ccccc12)c1ccncc1" , give its measured MIC value.
-- reply 256

-- ask For the molecule CC1(C)S[C@@H]2[C@H](NC(=O)[C@H](N)c3ccccc3)C(=O)N2[C@H]1C(=O)O [Amp., Ampicillin, reference compound] , give its measured MIC value.
-- reply 2

-- ask For the molecule "CCC(C)(C)c1ccc(/C=N/N=C(\N)c2ccncc2)cc1" , give its measured MIC value.
-- reply 128

Further cases:
-- ask For the molecule Cc1onc(-c2c(F)cccc2Cl)c1C(=O)N[C@@H]1C(=O)N2[C@@H]1SC(C)(C)[C@@H]2C(=O)O [Fluclox., Flucloxacillin, reference compound] , give its measured MIC value.
-- reply 1

----------
Each entry below carries its recorded MIC.
system: S. haemolyticus; test: MIC, agar dilution, multipoint inoculator; format: cell-based; details: S. haemolyticus Isolate 1; upper value of MIC reading
Number in µg/mL, nothing else.

Worked cases, answers included:
-- ask For the compound NC(=NN=Cc1ccc(O)c(O)c1)c1ccc2ccccc2n1 [QNca] , give its measured MIC value.
-- reply 128

-- ask For the compound NC(=NN=Cc1cc(Br)cc([N+](=O)[O-])c1O)c1cccnc1 [Compound 3PYcl] , give its measured MIC value.
-- reply 128

-- ask For the compound NC(=NN=Cc1cc(Br)cc([N+](=O)[O-])c1O)c1ccc2ccccc2n1 [QNcl] , give its measured MIC value.
-- reply 256

-- ask For the compound Oc1cc(O)c(C=NNc2ccccn2)c(O)c1 [HDcd] , give its measured MIC value.
-- reply 128

-- ask For the compound NC(=NN=Cc1c(O)ccc2ccccc12)c1cccnc1 [Compound 3PYdb] , give its measured MIC value.
-- reply 256

-- ask For the compound CCOc1ccccc1C=NN=C(N)c1cccnc1 [Compound 3PYay] , give its measured MIC value.
-- reply 256

Further cases:
-- ask For the compound O=[N+]([O-])c1cc(Br)cc(C=NNc2ccccn2)c1O [HDcl] , give its measured MIC value.
-- reply 128

-- ask For the compound NC(=NN=Cc1c(O)ccc2ccccc12)c1ccncc1 [Compound 4PYdb] , give its measured MIC value.
-- reply 128

-- ask For the compound CN(C)CCCOc1ccc(C=NN=C(N)c2ccc3ccccc3n2)cc1 [QNds] , give its measured MIC value.
-- reply 256

-- ask For the compound NC(=NN=Cc1ccc(O)c(O)c1O)c1cnccn1 [PZcb] , give its measured MIC value.
-- reply 256

-- ask For the compound NC(=NN=Cc1cc([N+](=O)[O-])ccc1O)c1ccccn1 [Compound 2PYcj] , give its measured MIC value.
-- reply 256
